- Test system: human TH17 cells
- Assay summary: Inhibition of IL-17 release from human TH17 cells
- Assay type: cell-based
- Assay conditions: Homo sapiens, 96 h, isolated human TH17 cells, 4 days culture, IL-17A by HTRF; read-out: pIC50 IL-17 release (converted)
Below is a list of entries, each paired with its recorded IC50 value.
Outcome measure: IC50 (µM)

CNC(=O)N1Cc2cc(S(=O)(=O)CCOC)ccc2C1C(=O)Nc1ccc(C(O)(C(F)(F)F)C(F)(F)F)cc1 (stereo not drawn) | 0.0501
O=C(Nc1ccc(C(O)(C(F)(F)F)C(F)(F)F)cc1)C1c2ccc(S(=O)(=O)CC3CC3)cc2CN1C(=O)C(F)(F)C1CC1 (stereo not drawn) | 0.01
CCS(=O)(=O)c1ccc2c(c1)CN(C(=O)CC1(N(C)C)CC1)C2C(=O)Nc1ccc(C(O)(C(F)(F)F)C(F)(F)F)cc1 (stereo not drawn) | 0.0631

* * *

- Test system: human TH17 cells
- Assay summary: Inhibition of IL-17 release from human TH17 cells
- Format: cell-based
- Assay conditions: Homo sapiens, 96 h, isolated human TH17 cells, 4 days culture, IL-17A by HTRF; read-out: pIC50 IL-17 release (converted)
In this section we review reported IC50 values for a set of compounds.
Outcome measure: IC50 (nM)

C[C@@H](F)CC(=O)N1Cc2cc(S(C)(=O)=O)ccc2C1C(=O)Nc1ccc(C(O)(C(F)(F)F)C(F)(F)F)cc1 (stereo partly shown) [Example 418] | 39.8
CS(=O)(=O)c1ccc2c(c1)CN(C(=O)C1(C#N)CC1)C2C(=O)Nc1ccc(C(O)(C(F)(F)F)C(F)(F)F)cc1F (stereo not shown) [Example 436] | 15.8
CC(C)[C@@H](O)C(=O)N1Cc2cc(S(C)(=O)=O)ccc2C1C(=O)Nc1ccc(C(O)(C(F)(F)F)C(F)(F)F)cc1 (single isomer, unassigned) [Example 422] | 39.8
CS(=O)(=O)c1ccc2c(c1)CN(C(=O)C1COC1)C2C(=O)Nc1ccc(C(O)(C(F)(F)F)C(F)(F)F)cc1 (stereo not shown) [Example 444] | 63.1
COC1(C(=O)N2Cc3cc(S(C)(=O)=O)ccc3C2C(=O)Nc2ccc(C(O)(C(F)(F)F)C(F)(F)F)cc2F)CC1 (stereo not shown) [Example 441] | 25.1
COC1(C(=O)N2Cc3cc(S(C)(=O)=O)ccc3C2C(=O)Nc2ccc(C(O)(C(F)(F)F)C(F)(F)F)cc2)CCCC1 (stereo not shown) [Example 434] | 25.1
CCNC(=O)N1Cc2cc(S(C)(=O)=O)ccc2C1C(=O)Nc1ccc(C(O)(C(F)(F)F)C(F)(F)F)cc1 (stereo not shown) [Example 454] | 39.8
CC(C)(O)CC(=O)N1Cc2cc(S(C)(=O)=O)ccc2C1C(=O)Nc1ccc(C(O)(C(F)(F)F)C(F)(F)F)cc1 (stereo not shown) [Example 421] | 100
COCCS(=O)(=O)c1ccc2c(c1)CN(C(=O)COC)C2C(=O)Nc1ccc(C(O)(C(F)(F)F)C(F)(F)F)cc1 (stereo not shown) [Example 706] | 50.1
CO[C@H](C)C(=O)N1Cc2cc(S(C)(=O)=O)ccc2C1C(=O)Nc1ccc(C(O)(C(F)(F)F)C(F)(F)F)cc1 (mixture of isomers) [Example 449] | 79.4
CCS(=O)(=O)c1ccc2c(c1)CN(C(=O)CC#N)C2C(=O)Nc1ccc(C(O)(C(F)(F)F)C(F)(F)F)cc1 (stereo not shown) [Example 116] | 200
CCC(OC)C(=O)N1Cc2cc(S(C)(=O)=O)ccc2C1C(=O)Nc1ccc(C(O)(C(F)(F)F)C(F)(F)F)cc1 (stereo not shown) [Example 447] | 50.1
CS(=O)(=O)c1ccc2c(c1)CN(C(=O)C1(C#N)CC1)C2C(=O)Nc1ccc(C(O)(C(F)(F)F)C(F)(F)F)c(F)c1 (stereo not shown) [Example 439] | 25.1
CNS(=O)(=O)c1ccc2c(c1)CNC2C(=O)Nc1ccc(C(O)(C(F)(F)F)C(F)(F)F)cc1 (stereo not shown) [Example 300] | 25.1
COC(C)(C)C(=O)N1Cc2cc(S(C)(=O)=O)ccc2C1C(=O)Nc1ccc(C(O)(C(F)(F)F)C(F)(F)F)cc1 (stereo not shown) [Example 419] | 50.1
O=C(Nc1ccc(C(O)(C(F)(F)F)C(F)(F)F)cc1)C1NCc2cc(S(=O)(=O)CC3(F)CC3)ccc21 (stereo not shown) [Example 1300] | 251

* * *

Parameter IC50: see the listing below.
- System: human TH17 cells
- Assay summary: Inhibition of IL-17 release from human TH17 cells
- Assay type: cell-based
- Assay conditions: Homo sapiens, 96 h, isolated human TH17 cells, 4 days culture, IL-17A by HTRF; read-out: pIC50 IL-17 release (converted)
Outcome measure: IC50 (nM)

COC1(C(=O)N2Cc3cc(S(=O)(=O)CCO)ccc3C2C(=O)Nc2ccc(C(O)(C(F)(F)F)C(F)(F)F)cc2)CC1 (centres unmarked) | 79.4
CC(=O)N1Cc2cc(S(=O)(=O)CC3(O)CC3)ccc2C1C(=O)Nc1ccc(C(O)(C(F)(F)F)C(F)(F)F)cc1 (centres unmarked) | 63.1
COCCS(=O)(=O)c1ccc2c(c1)CN(C(=O)C1(OC)CC1)C2C(=O)Nc1ccc(C(O)(C(F)(F)F)C(F)(F)F)cc1 (centres unmarked) | 25.1
CNS(=O)(=O)c1ccc2c(c1)CN(C(=O)CO)C2C(=O)Nc1ccc(C(O)(C(F)(F)F)C(F)(F)F)cc1 (centres unmarked) | 100
CS(=O)(=O)c1ccc2c(c1)CN(C(=O)CC1CC1)C2C(=O)Nc1ccc(C(O)(C(F)(F)F)C(F)(F)F)cc1 (centres unmarked) | 25.1
CCS(=O)(=O)c1ccc2c(c1)CN(C(=O)CC1(O)CC1)C2C(=O)Nc1ccc(C(O)(C(F)(F)F)C(F)(F)F)cc1 (centres unmarked) | 50.1
NC(C(=O)N1Cc2cc(S(=O)(=O)CC3CC3)ccc2C1C(=O)Nc1ccc(C(O)(C(F)(F)F)C(F)(F)F)cc1)C1CC1 (centres unmarked) | 200
CS(=O)(=O)c1ccc2c(c1)CN(C=O)C2C(=O)Nc1ccc(C(O)(C(F)(F)F)C(F)(F)F)cc1F (centres unmarked) | 50.1
CS(=O)(=O)c1ccc2c(c1)CN(C(=O)Cc1ccccc1)C2C(=O)Nc1ccc(C(O)(C(F)(F)F)C(F)(F)F)cc1 (centres unmarked) | 12.6
N#CC1(C(=O)N2Cc3cc(S(=O)(=O)C4CC4)ccc3C2C(=O)Nc2ccc(C(O)(C(F)(F)F)C(F)(F)F)cc2)CC1 (centres unmarked) | 39.8
O=C(Nc1ccc(C(O)(C(F)(F)F)C(F)(F)F)cc1)C1c2ccc(S(=O)(=O)C3CC3)cc2CN1C(=O)[C@@H]1CCCO1 (some centres unmarked) | 39.8
